System: TK-10 renal
PROCEDURE SUMMARY: NCI-60 one-dose screen, 48 h (100 = growth as untreated, 0 = no growth, -100 = all killed)
CONDITION LABEL: 10 µM unless noted
About 83,000 compounds went through this panel and 20% of them were active in at least one assay; those are over-represented in the sample as a whole.
Each entry below carries its recorded growth.
Unit % implied. Number only.

MOLECULE | TESTED SYSTEM | growth / %
Cc1cc(NS(=O)(=O)c2ccc(-c3cnc(C4CC4)o3)cc2)ccc1Cl | TK-10 renal | 54.3
CC[C@@H](C(=O)[C@@H](C)[C@@H](O)[C@H](C)[C@@H]1O[C@@H]([C@@H](CC)C(=O)O)CC[C@@H]1C)[C@H]1OC2(C=C[C@@H](O)[C@]3(CC[C@@](C)([C@H]4CC[C@](O)(CC)[C@H](C)O4)O3)O2)[C@H](C)C[C@@H]1C (some centres not stated) | TK-10 renal | 29.7
COc1cc2c(cc1-c1c(C)noc1C)ncc1nc(C3CCCC3)n([C@H](C)COC(F)F)c12 | TK-10 renal | 30.6
CC/C=C\C[C@H](O)C/C=C1/C(=O)C=C[C@@]1(C)C/C=C\CCCC(=O)OC | TK-10 renal | 95.9

Recorded growth for CC(C)(C)c1cc(C(C)(C)C)cc(S(=O)(=O)Nc2cc3ccccc3cc2C(=O)NCCN)c1 , please?
78.8

Recorded growth for O=C1c2cc3c(cc2-c2c1c1ccc(Cl)cc1c(=O)n2CCCN1CCOCC1)OCO3 , please?
103

Recorded growth for COc1ccc(C(=S)N2CCN(c3cccc(Cl)c3)CC2)cc1 , please?
94

* * *

Tested on: MOLT-4 leukemia
PROCEDURE SUMMARY: NCI-60 one-dose screen, 48 h
CONDITION LABEL: 10 µM unless noted
The panel holds about 83,000 compounds, 20% with a hit somewhere; the sample as a whole holds those more often. Calls of active or inactive are those of the source. The calls were made as follows: active = growth percent below 10; inactive = the rest.
Output constraint: value belongs to active, inactive

Look over these answered cases.
COMPOUND | TESTED SYSTEM | ASSIGNED CATEGORY
c1ccc(-c2cc3n4c(-c5ccccc5)nn(-c5ccccc5)c4cnc-3n2)cc1 | MOLT-4 leukemia | inactive
CNC(=O)c1cc(Oc2ccc(NC(=O)Nc3ccc(Cl)c(SC)c3)c(F)c2)ccn1 | MOLT-4 leukemia | inactive
Nc1n[nH]c2cc(F)c([C@@H]3Nc4ccc5[nH]ncc5c4[C@H]4C5CCC(C5)[C@@H]34)cc12 (some centres not stated) | MOLT-4 leukemia | inactive

Tell me the assay call for CCCCC[C@H]1C/C=C2/C(=O)C=C[C@@H]2C/C=C\CCCC(=O)O1 please.
active

Tell me the assay call for O=C1c2ccccc2OC=C(c2ccccc2)N1CCCCNc1ccc(S(=O)(=O)Nc2ncccn2)cc1 please.
inactive

Tell me the assay call for COc1ccc(SC2c3cc(OC)c(OC)cc3Oc3nc(N)c(C#N)c(N)c32)cc1 (configuration not stated) please.
active

Tell me the assay call for CCc1nc(N)nc(N)c1C#CC(C)c1cc(-c2ccnc(C)c2)c2oc(C)nc2c1 (configuration not stated) please.
active

Tell me the assay call for O=c1c2c3c(sc2nc(N/N=C/c2cn(-c4ccccc4)nc2-c2ccc(Cl)cc2)n1Cc1ccccc1)CCCC3 please.
inactive

Tell me the assay call for O=C1/C(=C(/c2ccccc2)N2CCOCC2)Cc2ccccc21 please.
inactive

Tell me the assay call for COc1cc2c(cc1-c1c(C)noc1C)ncc1nc(C3CCOCC3)n([C@@H](C)COC(F)F)c12 please.
inactive

Tell me the assay call for N#Cc1nnn(-c2ccc(S(N)(=O)=O)cc2)c1NC(=O)CCl please.
inactive

Tell me the assay call for N#Cc1c(-c2ccc(Cl)cc2)nc(N/N=C/c2cccc(Br)c2)nc1N1CCOCC1 please.
inactive

Tell me the assay call for O=c1nc2oc3ccc4ccccc4c3cc-2s1 please.
inactive

Tell me the assay call for CCNc1ncnc2c1cnn2C1CCCO1 (configuration not stated) please.
inactive

Tell me the assay call for COc1cc(-c2nn(C)nc2-c2cc3ccccc3s2)cc(OC)c1OC please.
inactive

Tell me the assay call for CC(C)(CCCN=C(N)Nc1ccc(Cl)cc1)c1ccc(F)cc1 please.
inactive

Tell me the assay call for COC(=O)[C@@H]1CCCN1C(=O)[C@@H]1CCCN1C(=O)[C@H](Cc1ccccc1)NC(=S)Nc1cc(C(F)(F)F)cc(C(F)(F)F)c1 please.
inactive

Tell me the assay call for Cc1c(/C=C/[N+](=O)[O-])ccc2c1[nH]c1ccccc12 please.
inactive
